# Tested on: Oval-Citar-3-MSLN cells
# PROTOCOL DESCRIPTION: Cytotoxic activity (CCK-8) in Oval-Citar-3 cells with high expression of MSLN
# CONDITION SUMMARY: read-out: cytotoxicity IC50; OVal-CitAR3-MSLN, 72 hours, CCK-8, N = 3
Non-standard residues stand in square brackets, D forms with d. Residues, ends and D or L forms follow the SMILES beside them. *: point of attachment. Dolaproine = CO[C@@H]([C@@H]1CCCN1)[C@@H](C)C(=O)O; Dil = CC[C@H](C)[C@H](NC)[C@@H](CC(=O)O)OC; Doe = c1ccc(C[C@H](N*)c2nccs2)cc1; X1 = C[C@@H](N*)[C@@H](O)c1ccccc1; NMeV = CN[C@H](C(=O)O)C(C)C
Consider the following compounds; for each one, report its IC50.
Numbers only; they are read as nM.

Incoming: Report IC50 for CC[C@H](C)[C@@H]([C@@H](CC(=O)N1CCC[C@H]1[C@H](OC)[C@@H](C)C(=O)N[C@@H](Cc1ccccc1)c1nccs1)OC)N(C)C(=O)[C@@H](NC(=O)[C@@H](NC)C(C)C)C(C)C [MMAD, monomethyl auristatin D] (H-[NMeV]V[Dil][Dolaproine]-Doe) please.
Outgoing: 0.152

Incoming: Given the entry CC[C@H](C)[C@@H]([C@@H](CC(=O)N1CCC[C@H]1[C@H](OC)[C@@H](C)C(=O)N[C@H](C)[C@@H](O)c1ccccc1)OC)N(C)C(=O)[C@@H](NC(=O)[C@@H](NC)C(C)C)C(C)C [MMAE, monomethyl auristatin E] (H-[NMeV]V[Dil][Dolaproine]-X1) , report its measured IC50.
Outgoing: 0.446

Cited source for all entries: patent US12171840B2
